Target: ABHD6 (Mus musculus)
Sequence (Q8R2Y0 1-336): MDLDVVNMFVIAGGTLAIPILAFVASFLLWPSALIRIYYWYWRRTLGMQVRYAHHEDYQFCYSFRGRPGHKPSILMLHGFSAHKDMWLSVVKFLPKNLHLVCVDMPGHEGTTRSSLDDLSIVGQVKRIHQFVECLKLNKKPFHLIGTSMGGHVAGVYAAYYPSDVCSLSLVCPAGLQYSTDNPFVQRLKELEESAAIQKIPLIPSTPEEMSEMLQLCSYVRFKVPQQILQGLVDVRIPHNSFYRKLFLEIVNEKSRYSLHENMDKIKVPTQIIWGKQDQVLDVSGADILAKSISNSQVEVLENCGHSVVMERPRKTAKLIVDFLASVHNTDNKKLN

compound	IC50
O=C(O)C1CCN(c2cc(Cl)ccc2CN2CCC3(CC2)CCN(C(=O)OC(C(F)(F)F)C(F)(F)F)C3)CC1 [Example 194]	> 1000 nM
CC(=O)N1CCCc2cccc(CN3CCC4(CC3)CN(C(=O)OC(C(F)(F)F)C(F)(F)F)C4)c21 [Example 152]	< 100 nM
O=C(OC(C(F)(F)F)C(F)(F)F)N1CCC2(CCN(Cc3ccc(Cl)cc3N3CCOCC3)CC2)C1 [Example 181]	> 1000 nM
O=C(OC(C(F)(F)F)C(F)(F)F)N1CCC2(CC1)CN(Cc1c(Cl)cccc1N1CCC(F)CC1)C2 [Example 47]	< 100 nM
CS(=O)(=O)N1CCC2(CCN(c3cc(CN4CCCC45CN(C(=O)OC(C(F)(F)F)C(F)(F)F)C5)cc(C(F)(F)F)c3)CC2)C1 [Example 233]	> 1000 nM
CS(=O)(=O)N1CC2CN(c3cc(Cl)ccc3CN3CCN(C(=O)OC(C(F)(F)F)C(F)(F)F)CC3)CC2C1 (centres unmarked) [Example 203]	> 1000 nM
O=C(OC(C(F)(F)F)C(F)(F)F)N1CCC2(CC1)CN(Cc1ccc(C(F)(F)F)cc1N1CCCCC1)C2 [Example 35]	100 to 1000 nM
O=C(OC(C(F)(F)F)C(F)(F)F)N1CCC2(CC1)CN(Cc1c(N3CCC4(CCOCC4)C3)cccc1C(F)(F)F)C2 [Example 52]	100 to 1000 nM
CC(=O)N1CC2(CCN(c3cc(C(F)(F)F)ccc3CN3CCN(C(=O)OC(C(F)(F)F)C(F)(F)F)CC3)CC2)C1 [Example 216]	> 1000 nM
CS(=O)(=O)N1CC2(CCN(c3cc(C(F)(F)F)ccc3CN3CCN(C(=O)OC(C(F)(F)F)C(F)(F)F)CC3)CC2)C1 [Example 211]	> 1000 nM
CCN1CCC2(CCN(c3cc(Cl)ccc3CN3CCN(C(=O)OC(C(F)(F)F)C(F)(F)F)CC3)CC2)C1 [Example 170]	> 1000 nM
CS(=O)(=O)N1CCCC12CCN(c1cc(Cl)ccc1CN1CCN(C(=O)OC(C(F)(F)F)C(F)(F)F)CC1)CC2 [Example 205]	> 1000 nM
O=C(OC(C(F)(F)F)C(F)(F)F)N1CCC2(CC1)CN(Cc1c(Cl)cccc1N1CC3COCC3C1)C2 (centres unmarked) [Example 57]	100 to 1000 nM
CS(=O)(=O)N1CCC2(CCN(c3ccccc3CN3CCN(C(=O)OC(C(F)(F)F)C(F)(F)F)CC3)C2)C1 (centres unmarked) [Example 165]	> 1000 nM
